Where these numbers come from: paper PMC12416549

Target: T1, TNFR1 (Homo sapiens, UniProt P19438)
T1 chain: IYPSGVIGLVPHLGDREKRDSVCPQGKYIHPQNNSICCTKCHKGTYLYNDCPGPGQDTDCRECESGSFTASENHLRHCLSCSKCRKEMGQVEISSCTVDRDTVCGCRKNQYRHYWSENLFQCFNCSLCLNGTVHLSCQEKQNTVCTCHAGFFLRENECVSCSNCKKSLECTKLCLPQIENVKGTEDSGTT
Assay: yeast display SC50
Label Fulfilled for high-side apparent Kd (screen) (at or above 0.8 nM) and Not fulfilled for low-side apparent Kd (screen) (below it).

>  <binder>
E33P (designed binder) MTLQELLREEALRRAEAEAFRYALELLAEKFPPQKEYLLDLAEEIESQIRSLSGVDVEDVRKFLDKEWAWVKELLAEHPAELAEVEAARAARLAELRAEVEAKVAA

>  <group-label>
Not fulfilled

$$$$
>  <binder>
V100P (designed binder) MTLQELLREEALRRAEAEAFRYALELLAEKFPEQKEYLLDLAEEIESQIRSLSGVDVEDVRKFLDKEWAWVKELLAEHPAELAEVEAARAARLAELRAEPEAKVAA

>  <group-label>
Not fulfilled

$$$$
>  <binder>
S47Y (designed binder) MTLQELLREEALRRAEAEAFRYALELLAEKFPEQKEYLLDLAEEIEYQIRSLSGVDVEDVRKFLDKEWAWVKELLAEHPAELAEVEAARAARLAELRAEVEAKVAA

>  <group-label>
Not fulfilled

$$$$
>  <binder>
R89E (designed binder) MTLQELLREEALRRAEAEAFRYALELLAEKFPEQKEYLLDLAEEIESQIRSLSGVDVEDVRKFLDKEWAWVKELLAEHPAELAEVEAAEAARLAELRAEVEAKVAA

>  <group-label>
Fulfilled

$$$$

[in] # check: apparent Kd (screen) of R50T (designed binder) MTLQELLREEALRRAEAEAFRYALELLAEKFPEQKEYLLDLAEEIESQITSLSGVDVEDVRKFLDKEWAWVKELLAEHPAELAEVEAARAARLAELRAEVEAKVAA is greater than or equal to 0.8 nM
[out] Not fulfilled

[in] Consider next the binder L64P (designed binder) MTLQELLREEALRRAEAEAFRYALELLAEKFPEQKEYLLDLAEEIESQIRSLSGVDVEDVRKFPDKEWAWVKELLAEHPAELAEVEAARAARLAELRAEVEAKVAA in the same way.
[out] Fulfilled
